Measured values drawn from the RNAGym collection of RNA variant scans (doi:10.7554/elife.80360) for this set.

B1: HDV Ribozyme (parent)
chain: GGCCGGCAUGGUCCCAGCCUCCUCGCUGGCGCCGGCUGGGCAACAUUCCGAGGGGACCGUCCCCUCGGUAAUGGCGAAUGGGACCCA

Variants of: B1
Experiment: self-cleavage, relative activity (ratio to wild type); higher = more cleavage; co-transcriptional
If the reported self-cleavage equals or exceeds 0.7, assign TRUE. If not, assign FALSE.

// inclusive: self-cleavage at least 0.7? input: GGCCGGCAUGGUCCAAGCCUCCUCGCUGGCGCCGGCUGGGCAACAUUCCGAGGGGAACGUCCCCUCGGUAAUGGCGAAUGGGACCCA [C15A C57A]
TRUE

// inclusive: self-cleavage at least 0.7? input: GGCCGGCAUGGUCCCAGCAUCCUCGCUGGCGCCGGCUGGGCAACAUUCCGAGGGGACCGUCCCCUCGGUAAUGACGAAUGGGACCCA [C19A G74A]
FALSE

// inclusive: self-cleavage at least 0.7? input: GGCCGGCAUGGUCCGAGCCUCCUCGCUGGCGCCGGCUGGGCAACAUUCCGAGGGGACCGUCCCCUCGGUCAUGGCGAAUGGGACCCA [C15G A70C]
TRUE

// inclusive: self-cleavage at least 0.7? input: GCCCGGCAUGGUCCCAGCCUCCUCGCUAGCGCCGGCUGGGCAACAUUCCGAGGGGACCGUCCCCUCGGUAAUGGCGAAUGGGACCCA [G2C G28A]
FALSE

// inclusive: self-cleavage at least 0.7? input: GGCCGGCAUGGUCCCAGCCUCCUCGCUGGCGCCGGCUGGGCAACAUUCCGAGGGGACCGUCCCCUCGGUAAUAGCGAUUGGGACCCA [G73A A78U]
FALSE

// inclusive: self-cleavage at least 0.7? input: AGCCGGCAUGGUCCCAGCCUCCUCGCUUGCGCCGGCUGGGCAACAUUCCGAGGGGACCGUCCCCUCGGUAAUGGCGAAUGGGACCCA [G1A G28U]
FALSE

// inclusive: self-cleavage at least 0.7? input: GGCCGGCAUGGUCCCAGCCUCCUCGCUGGCGCCGGCUGGGCAACAUUACGAGGGGACCGUCCCCUCGGUAAUGGCGAAUGGCACCCA [C48A G82C]
FALSE

// inclusive: self-cleavage at least 0.7? input: GGCCGGCAUGGUCCCAGCCUCCUGGCUGGCGCCGGCUGGGCUACAUUCCGAGGGGACCGUCCCCUCGGUAAUGGCGAAUGGGACCCA [C24G A42U]
FALSE

// inclusive: self-cleavage at least 0.7? input: GGCCGGCAUGGUCCCAGCCUCCUCGCUGUCGCCGGCUGGGCAACAUUCCGAGGGGACCGUCCCCUCGGUAAUGGCGAAUGGGACGCA [G29U C85G]
FALSE

// inclusive: self-cleavage at least 0.7? input: GGCCGGCAUGGUCCCAGCCUCCUCGCUGGCGCCGGCUGGGCAACAUUCCAAGGGGACCGUCCCCUGGGUAAUGGCGAAUGGGACCCA [G50A C66G]
TRUE
